Tested on: ldlA CHO mSR-BI C384S, [3H]cholesterol efflux to HDL
Experiment: cholesterol efflux inhibition via mutant SR-BI C384S, mechanism study for SR-BI HDL uptake inhibitor project, cell-based, ldlA CHO, [3H]cholesterol, single point, dry powder (AID 588843)
Conditions: measured here: second test run; at 1 µM; stronger effect = lower value
Inconclusive results are not listed.
I'd appreciate it if you could supply cholesterol efflux values for the items below.

Please review the following examples before continuing.
# molecule, cholesterol efflux
measured = [
    ("CCC(=O)N1CCc2cc(-c3csc(NC(=O)c4ccco4)n3)ccc21", "7.93%"),
    ("COc1ccc(-c2nnn(CC(=O)N(C3CCCCC3)C(C)C(=O)NC3CCCC3)n2)cc1OC (stereo not given)", "7.04%"),
    ("CCOC(=O)N1CCC(NC(=O)c2ccc3c(c2)N(Cc2ccc(F)cc2)CCS3)CC1", "7.46%"),
    ("O=C(Nc1ccc(-c2nc3cc(NC(=O)c4ccc(NC(=O)c5cccc6ccccc56)cc4)ccc3[nH]2)cc1)c1ccc(NC(=O)c2cccc3ccccc23)cc1", "7.85%"),
]

Next molecule, please.
IN: Query: cholesterol efflux; subject: O=C(Nc1ccc(-c2nc3cc(NC(=O)c4ccccc4[N+](=O)[O-])ccc3o2)cc1)c1ccccc1[N+](=O)[O-]
OUT: 3.07%

###

Tested on: ldlA CHO mSR-BI C384S, [3H]cholesterol efflux to HDL
Experiment: cholesterol efflux inhibition via mutant SR-BI C384S, mechanism study for SR-BI HDL uptake inhibitor project, cell-based, ldlA CHO, [3H]cholesterol, single point, dry powder (AID 588843)
Settings: at 1 µM; stronger effect = lower value
Results filed as inconclusive are left out.
Returns: string. Value is YES if measured cholesterol efflux is below 10%, and NO if it is greater than or equal to it.

Study these solved cases before continuing.
# molecule, measuredOn, labelClass
records = [
    ("O=C(Nc1ccc(-c2nc3ccc(NC(=O)c4ccccc4)cc3[nH]2)cc1)c1ccccc1", "ldlA CHO mSR-BI C384S, [3H]cholesterol efflux to HDL", "NO"),
    ("CC(C)OCCCNC(=O)c1ccc(C2SCC(=O)N2Cc2ccco2)cc1 (stereo not given)", "ldlA CHO mSR-BI C384S, [3H]cholesterol efflux to HDL", "NO"),
    ("Cc1cc(SC(C)C(=O)Nc2ncc(Cl)cc2Cl)nc2ccccc12 (stereo not given)", "ldlA CHO mSR-BI C384S, [3H]cholesterol efflux to HDL", "NO"),
    ("O=C(Nc1ccc(-c2nc3cc(NC(=O)c4ccccc4[N+](=O)[O-])ccc3o2)cc1)c1ccccc1[N+](=O)[O-]", "ldlA CHO mSR-BI C384S, [3H]cholesterol efflux to HDL", "YES"),
]

Could you now consider this next molecule?
IN: # check: cholesterol efflux < 10% for O=C(Nc1ccccc1Cl)c1ccccc1NS(=O)(=O)c1ccccc1
OUT: NO

###

I'd appreciate it if you could supply cholesterol efflux values for the items below.
Test system: ldlA CHO mSR-BI C384S, [3H]cholesterol efflux to HDL
Assay: cholesterol efflux inhibition via mutant SR-BI C384S, mechanism study for SR-BI HDL uptake inhibitor project, cell-based, ldlA CHO, [3H]cholesterol, single point, dry powder (AID 588843)
Details: at 1 µM; stronger effect = lower value
Inconclusive results are not listed. Activity calls are given as the source filed them. The rule behind the calls is not given here.

# compound, cholesterol efflux
records = [
    ("Cc1cc(C)c2c(c1)NC(c1cc3c(cc1Br)OCO3)C1CC=CC21 (stereo not drawn)", "19% (inactive)"),
]

Give cholesterol efflux for each listed item.
1. COC(=O)c1cn(C(=O)c2cccc3ccccc23)c2ccccc12
2. Cc1ccc(-c2nnc(N3CCC(C)CC3)c3ccccc23)cc1C

OUT:
19.2% (inactive)
20.5% (inactive)
